Cited source for all entries: patent US20240254089A1

target: human MRGPR X4 (Homo sapiens); construct: expressed in transfected cells; test: MRGPR X4 antagonist activity, IP-One Gq HTRF assay in stably transfected HEK cells; assay type: cell-based
Sequence (Q96LA9 whole entry): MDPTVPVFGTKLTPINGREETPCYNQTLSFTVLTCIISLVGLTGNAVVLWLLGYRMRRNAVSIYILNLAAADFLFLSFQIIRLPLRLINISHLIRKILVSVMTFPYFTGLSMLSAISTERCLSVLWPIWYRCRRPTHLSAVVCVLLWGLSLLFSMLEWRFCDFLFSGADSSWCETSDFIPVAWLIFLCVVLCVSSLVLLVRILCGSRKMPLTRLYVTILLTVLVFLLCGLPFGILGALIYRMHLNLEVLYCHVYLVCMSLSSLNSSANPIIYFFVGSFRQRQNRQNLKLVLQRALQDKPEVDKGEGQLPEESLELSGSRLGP
pIC50: −log10 of the molar value.
property-measured: pIC50

Lookup result for O=C(NCc1nc2ccccc2[nH]1)c1nn(Cc2ccc(Cl)cc2)c2ccccc12 ; measured pIC50: 6.30 to 7.00

Noted for O=C(NCCc1nnc2ccccn12)c1nn(Cc2ccc(Cl)cc2)c2cc(C(F)(F)F)ccc12 : its pIC50 reads > 7.00

Consider O=C(NCc1ccc2nonc2c1)c1nn(Cc2ccc(Cl)cc2)c2ccccc12 . Its measured pIC50 is < 5.60

Consider O=C(NCCc1nnc2ccccn12)c1nn(Cc2cc3c(cc2Cl)OCO3)c2ccccc12 . Its measured pIC50 is > 7.00

Item: Cc1cccnc1CCNC(=O)c1nn(Cc2ccc(Cl)cc2)c2ccccc12 | pIC50: 6.00 to 6.30

Per the records, this compound ( CC(C)n1cnnc1CCNC(=O)c1nn(Cc2ccc(Cl)cc2)c2ccccc12 ) has pIC50 equal to 5.60 to 6.00

# pIC50 of Cc1ccc(Cn2nc(C(=O)NCCc3cnoc3)c3ccccc32)cc1 = < 5.60

Sample Cc1nc(CCNC(=O)c2nn(Cc3ccc(Cl)cc3)c3ccccc23)sc1C(=O)O ; pIC50 observed: 6.00 to 6.30

// pIC50 value for O=C(O)c1nn(Cc2ccc(OC(F)F)cc2)c2ccccc12 : < 5.60

---

molecular target: human MRGPR X4 (Homo sapiens); construct: expressed in transfected cells; test: MRGPR X4 antagonist activity, IP-One Gq HTRF assay in stably transfected HEK cells; format: cell-based
Task for the reader: assign each of the following compounds its reported IC50.

Record O=C(NCCc1ccc(Cl)c(F)c1)c1cn(Cc2ccc(Cl)cc2)c2ccccc12 [Compound 205] , field IC50: 1000 to 2500 nM

So for O=C(NCCc1nnc2ccccn12)c1nn(Cc2cccc3c2OCO3)c2ccccc12 [Compound 433] , the logged IC50 turned out to be 501 to 1000 nM

So, O=C(NCCc1nnc2ccccn12)c1nn(Cc2nc3ccccc3o2)c2ccccc12 [Compound 438] ? Its IC50 was 100 to 500 nM

Sample Cc1cccc2nc(Cn3nc(C(=O)NCCc4nnc5ccccn45)c4ccccc43)n(C)c12 [Compound 569] ; IC50 observed: 100 to 500 nM

---

Target: human MRGPR X4 (Homo sapiens)
Construct: expressed in transfected cells
Assay: MRGPR X4 antagonist activity, IP-One Gq HTRF assay in stably transfected HEK cells
Format: cell-based
Procedure: HEK cells stably transfected to express human MIRGPR X4 were maintained in an incubator at 37° C. with 5% CO2 and grown in DMEM media with 10% fetal bovine serum (FBS) and […] each of sodium pyruvate, Glutamax, penicillin/streptomycin, and Geneticin. […] Cells were plated in a 384-well assay plate at 20,000 cells per well in 12 μL of Opti-MEM and kept in an incubator overnight. […] The plate was read on a Molecular Devices SpectraMax iD5 plate reader. […]
pIC50: −log10 of the molar value.
property-measured: pIC50

Value of measured pIC50 for the entry O=C(NCc1ccc(-n2ccnc2)cc1)c1nn(Cc2ccc(Cl)cc2)c2ccccc12 : 5.60 to 6.00

Note to self: pIC50 recorded for Cc1ccc(Cn2nc(C(=O)NCCc3nncn3C)c3ccccc32)cc1 was 5.60 to 6.00

The compound listed as O=C(NCc1ccnnc1)c1nn(Cc2ccc(Cl)cc2)c2ccccc12 shows pIC50 equal to < 5.60

// N#Cc1ccc(Cn2nc(C(=O)NCCc3nnc4ccccn34)c3ccccc32)cn1 : pIC50 value = 5.60 to 6.00

So, Cc1ccc(Cn2nc(C(=O)NCCc3nnc4n3CCCCC4)c3c(F)cccc32)cc1 ? Its pIC50 was 6.30 to 7.00

Recorded pIC50 (compound O=C(NCCc1nnc2ccccn12)c1nn(Cc2ccc3sccc3c2)c2ccc(F)cc12 ): > 7.00

Looking up Cc1cc(C)c2oc(Cn3nc(C(=O)NCCc4nnc5ccccn45)c4ccccc43)cc2c1 , I see its pIC50 listed as 6.30 to 7.00

// sample O=C(O)c1nn(Cc2ccc(Cl)cc2)c2ccc(F)cc12 , its pIC50 was 5.60 to 6.00

Entry O=C(NCCc1cccnc1)c1nn(Cc2ccc(Cl)cc2Cl)c2ccccc12 , pIC50 reported as > 7.00
